Cited source: ChEMBL document CHEMBL1201862

- Test system: SF-268
- experiment.summary: NCI tumour cell line growth inhibition, 48 h
The source made the active and inactive calls. No stated cut-off is given here; in the data, active = GI50 up to about 1.1 µM and inactive = higher.
Your response should consist of one outcome taken from TRUE = active, FALSE = inactive

# count of solved cases: 10
O=c1oc2cc(/N=C/c3ccc4c(c3)OCO4)ccc2c2ccccc12: FALSE
N#CCSc1c(-c2ccccc2)c(=O)n(-c2ccccc2)c(=S)n1-c1ccccc1: FALSE
CN(C)C(C1=C(O)C(c2ccccc2)N(c2ccccc2)C1=O)N1CCOCC1 (stereo unspecified): FALSE
CCCCCCC1OC23OC1CCC2C(O)CCC3O (stereo unspecified): FALSE
CC(CNCCCNCCNCCCNCO)[N+](=O)[O-] (stereo unspecified): FALSE
COc1ccc2[nH]c3c(C)c4ccncc4c(C)c3c2c1: TRUE
NC(=O)c1ccc(NS(=O)(=O)c2ccc(N)cc2)nc1: FALSE
CN1C(=O)C23CCCCC2CC1(c1ccccc1)S3 (stereo unspecified): FALSE
NC1=NC(=O)[C@H](CSCc2ccccc2)N1C(=O)OCc1ccccc1: FALSE
CN(C)CCCOc1nc2c(c(=O)n(C)c(=O)n2C)n1C.SC1=NC=NC2=NC=NC12: FALSE

Please find the next compound below.
Ask: Answer briefly: the call reported for "CC(=O)OC/C=C/[C@H](O[Si](C)(C)C(C)(C)C)[C@@H](O)/C=C/COC(C)=O" in this assay.
Result: FALSE

* * *

- System: HCT-15
metric.name: GI50

CC1=C(O)C(=O)C2C(=O)C1C(C)C2c1ccccc1 (centres undefined): > 100 µM
Clc1ccc2nc3c(c(-c4ccccc4)nn3-c3ccccc3)c(-c3ccccc3)c2c1: > 100 µM
COc1cc(-c2cc(CCC(=O)Nc3ccccc3[N+](=O)[O-])n(-c3ccc([N+](=O)[O-])cc3[N+](=O)[O-])n2)ccc1O: 40.7 µM
CCN(CC(COc1ccc2c(c1)[n+]([O-])nc(N)[n+]2[O-])OC(C)=O)C(C)=O (centres undefined): > 100 µM

Per the record, "Cc1nn(C)c2c1C(=O)N(C)CC(=O)N2C" has GI50 of 69.7 µM

Per the record, CC(C)(C)OC(=O)C1CC[C@@H](CC(=O)Oc2ccc([N+](=O)[O-])cc2)N1 (some centres undefined) has GI50 of > 100 µM

Per the record, "O=C(NCCCCN(CCCNC(=O)C(F)(F)F)Cc1ccc2ccccc2c1)C(F)(F)F" has GI50 of 17.3 µM

Per the record, "CCOP(=O)(CN=C(c1ccccc1)c1ccccc1)OCC" has GI50 of > 100 µM

Per the record, C[C@H]1[C@H](C)CC[C@]2(C(=O)OC3OC(CO)C(O)C(O)C3O)CC[C@]3(C)C(=CC[C@@H]4[C@@]5(C)C[C@H]6OC(=O)c7cc(O)c(O)c(O)c7-c7c(cc(O)c(O)c7O)C(=O)O[C@@H]6C(CO)(CO)[C@@H]5CC[C@]43C)[C@H]12 (some centres undefined) has GI50 of 24.8 µM

Per the record, CCCCC(=C=C1CCCCC1O)C1CCCN1C(=O)OC(C)(C)C (centres undefined) has GI50 of 16.4 µM

Per the record, "CS(=O)(=O)O[C@H]1CN2C[C@@H](O)[C@@H](O)[C@H]2[C@H]1CO.[B]" has GI50 of > 100 µM

Per the record, "C/C=C/COc1cc(NC(=S)OC(C)C)ccc1Cl.C/C=C\COc1cc(NC(=S)OC(C)C)ccc1Cl" has GI50 of 17.3 µM

Per the record, "O=C1Cc2c(-c3cccs3)cc(-c3ccccc3)nc2-c2ccccc2N1" has GI50 of 40.1 µM

Per the record, COC(=O)[C@]1(C)CCCC2(C)C3=C(CCC21)CC1(CC3)SCCS1 (some centres undefined) has GI50 of > 10 µM

* * *

- System: HOP-62
- experiment.summary: NCI tumour cell line growth inhibition, 48 h
Active and inactive are the calls of the source. Rule as the data show it: active = GI50 up to about 1.1 µM and inactive = higher.
# Lookup of reported GI50 keyed by entry

O=c1c(-c2ccccc2)c2oc(c1-c1ccccc1)CS(=O)(=O)CCC2: 42.6 µM (inactive)
N#CCCCCC12C3C(=O)N(c4ccccc4)C(=O)C3ON1O[C@@H]1C(=O)N(c3ccccc3)C(=O)[C@@H]12 (stereo not given in full): > 100 µM (inactive)
COc1ccc(-c2cc(O)c3cc4c(cc3n2)OCO4)cc1OC: > 100 µM (inactive)
Cc1cc2oc(C)c(S(=O)(=O)NC(=O)Nc3ccc(Cl)cc3)c(=O)c2c(=O)o1: > 100 µM (inactive)

Now, please, on to the next molecule.
Per the record, "COc1cccc(C=C(C#N)C#N)c1OC" has GI50 of > 100 µM (inactive)

* * *

- Tested on: NCI-H460
- experiment.summary: NCI tumour cell line growth inhibition, 48 h
Activity calls are given as the source filed them. No stated cut-off is given here; in the data, active = GI50 up to about 1.1 µM and inactive = higher.
Your response should consist of one outcome taken from YES (active), NO (inactive)

# count of solved cases: 5
N[C@H](C(=O)O)[C@@H]1CC(Br)=NO1: NO
Cc1cc2oc(=O)c(Cl)c(Cl)c2c(C)c1Cl: NO
N#CC1=C(Cl)NC(Cl)=C(C#N)C1c1c(Cl)cccc1Cl: NO
COc1ccc(C2c3cc4c(cc3OC(NCCO)C2C)OCO4)cc1 (stereo unspecified): NO
O=C1OCC(c2ccc(Cl)cc2)=C1Cl: NO

Ask: Answer briefly: the call reported for "COC(=O)C1=C(O)c2ccc(Cl)cc2S(=O)(=O)N1C" in this assay.
Result: NO

* * *

- Tested on: HCT-15
For each record, check the reported GI50: if it is below 0.7 µM write yes, else write no.

# count of solved cases: 7
COc1ccc(C2C3=C(COC3=O)Oc3cc4c(cc32)OCO4)c(OC)c1 (stereo not drawn): no
COC(=O)/C=C1\C(CO[Si](C)(C)C(C)(C)C)OC(n2cc(C)c(=O)n(C)c2=O)C1O[Si](C)(C)C(C)(C)C (stereo not drawn): no
N#Cc1c(-c2ccccc2)c(C#N)c(=S)n(C2OCC(O)C(O)C2O)c1N (stereo not drawn): no
Cc1coc2c1C(=O)C(=O)c1c-2ccc2c1CCCC2(C)C: yes
COC(=O)/C=C(\C)C(=O)N(C)c1ccccc1I: no
CN(C)CC1CCC/C(=C\c2ccc(Cl)c(Cl)c2)C1=O (stereo not drawn): no
Oc1c(Cl)c(Cl)c(Cl)c(Cl)c1Cl: no

Ask: Please determine if CC(=O)O[C@H]1C(=O)[C@@]2(C)[C@H]([C@H](OC(=O)c3ccccc3)[C@]3(O)C[C@H](OC(=O)[C@H](OC(=O)OCCC(O)CO)[C@@H](NC(=O)c4ccccc4)c4ccccc4)C(C)=C1C3(C)C)[C@]1(OC(C)=O)CO[C@@H]1C[C@@H]2O (stereo partly drawn) is below 0.7 µM in terms of GI50.
Result: yes

* * *

- Tested on: NCI-H522
- experiment.summary: NCI tumour cell line growth inhibition, 48 h
The source made the active and inactive calls. Cut-off read from the data, not from the text of the source: active = GI50 up to about 1.1 µM and inactive = higher.
metric.name: GI50

N#CCCC(CCC#N)(CCC#N)NO: 0.013 µM (active)
CN(C)c1ccc(/C=C(\NC(=O)c2ccccc2)C(=O)Nc2cccc(C(=O)NCCCO)c2)cc1: > 100 µM (inactive)
O/N=C/C1c2ccccc2-c2ccccc21: 16.9 µM (inactive)
O=C1C(C(c2ccccc2)N2CCOCC2)=C(O)C(c2ccccc2)N1c1ccccc1 (stereo not given): > 10 µM (inactive)
Cc1ccc(S(=O)(=O)n2c3c(c4ccccc42)CCN2C[C@H]([C@H](C)Br)CC[C@@H]32)cc1: > 100 µM (inactive)

Per the record, "CCSc1cc2c(cc1O)CC[C@@H]1[C@@H]2CC[C@]2(C)[C@@H](O)CC[C@@H]12" has GI50 of 6.61 µM (inactive)

Per the record, COC(=O)C12OCC34C(CC5C(C)C6=CC(=O)OC6=CC5(C)C3C(O)C1O)OC(=O)C(OC(C)=O)C24 (stereo not given) has GI50 of 8.91 µM (inactive)

Per the record, "c1ccc2c(c1)[nH]c1c2nc2ccccn21" has GI50 of > 100 µM (inactive)

Per the record, COc1nc2c(c(=O)n1C)NC(C(O)C(O)CO)C=N2 (stereo not given) has GI50 of > 10 µM (inactive)

Per the record, N#CCCCCC12C3C(=O)N(c4ccccc4)C(=O)C3ON1O[C@@H]1C(=O)N(c3ccccc3)C(=O)[C@@H]12 (stereo not given in full) has GI50 of > 100 µM (inactive)

Per the record, "Cn1nc(-c2ccccc2NC(=O)C(F)(F)F)c(=O)n(C)c1=S" has GI50 of 19.3 µM (inactive)

Per the record, "CC(=O)c1c(C(F)(F)F)[n+]([O-])c2cc(Cl)c(Cl)cc2[n+]1[O-]" has GI50 of 0.165 µM (active)

Per the record, O=C1C2CCCCC2C(=O)N1n1c(Cc2ccccc2)n[nH]c1=O (stereo not given) has GI50 of > 100 µM (inactive)

Per the record, "Cc1ccc(C(=O)NN=C(/N=N/c2cccc(C)c2)c2ccc(N(C)C)cc2)cc1" has GI50 of > 100 µM (inactive)

Per the record, "Cn1[nH]nn/c1=N\N=C\c1ccccc1" has GI50 of > 10 µM (inactive)

Per the record, CC1=CP(=O)(c2c(C(C)C)cc(C(C)C)cc2C(C)C)CCC1Cl (stereo not given) has GI50 of 14.1 µM (inactive)

Per the record, O=C1CC2(CCCc3sccc32)C(=O)N1 (stereo not given) has GI50 of > 100 µM (inactive)

Per the record, "CC(C(=O)NCCNC(=O)CCCC(=O)N(C)O)C(=O)NCCNC(=O)CCCC(=O)N(C)O" has GI50 of > 100 µM (inactive)

Per the record, "CCN(CC)C(=O)N[C@@H](Cc1ccccc1)C(=O)NC" has GI50 of > 100 µM (inactive)

Per the record, COc1ccc(/C=C\c2cc(OC)c(OC)c(OC)c2)cc1OC(=O)CC(N)C(=O)O (stereo not given) has GI50 of 0.00132 µM (active)
